Test system: E. coli 1705878
method: MIC, microtiter-based liquid assay (CLSI)
Format: cell-based
conditionsUsed: Escherichia coli, MDR strain
quantityName: MIC
Answer format: number, then unit.

CN(C)c1cc(NC(=O)CNC(C)(C)C)c(O)c2c1C[C@H]1C[C@H]3[C@H](N(C)C)C(O)=C(C(N)=O)C(=O)[C@@]3(O)C(O)=C1C2=O [Tigecycline, reference compound]	0.5 µg/mL

## Input Return reported MIC for target or system E. coli 1705878, item C=C[C@H](NCCCNC(=N)N)c1ccc(-n2cc3cc(-c4cc(CCC[C@H](C)N)cc(Cl)c4F)[nH]c3nc2=O)cc1 .
## Output 0.5 µg/mL

## Input Return reported MIC for target or system E. coli 1705878, item C=C[C@@H](NCCCNC(=N)N)c1ccc(-n2cc3cc(-c4cc(CCC[C@H](C)N)cc(Cl)c4F)[nH]c3nc2=O)cc1 .
## Output 0.5 µg/mL

## Input Return reported MIC for target or system E. coli 1705878, item C[C@H](N)CCCc1cc(Cl)c(F)c(-c2cc3cn(-c4ccc([C@H](CCNc5nccs5)NCCCNC(=N)N)cc4)c(=O)nc3[nH]2)c1 .
## Output 2 µg/mL

## Input Return reported MIC for target or system E. coli 1705878, item C[C@H](NCCCNC(=N)N)c1ccc(-n2cc3cc(-c4cc(CCC5(CN)CC5)cc(Cl)c4F)[nH]c3nc2=O)cc1 .
## Output 0.5 µg/mL

## Input Return reported MIC for target or system E. coli 1705878, item C[C@H](NCCCNC(=N)N)c1ccc(-n2cc3cc(-c4cc(CCC[C@@H](N)CF)cc(Cl)c4F)[nH]c3nc2=O)cc1 .
## Output 2 µg/mL

## Input Return reported MIC for target or system E. coli 1705878, item C[C@H](NCCCNC(=N)N)c1ccc(-n2cc3cc(-c4cc(C5CCC(CN)CC5)cc(Cl)c4F)[nH]c3nc2=O)cc1 (stereo partly drawn) .
## Output 1 µg/mL

## Input Return reported MIC for target or system E. coli 1705878, item C[C@@H](N)CCCc1cc(Cl)c(F)c(-c2cc3cn(-c4ccc(CNCCCNC(=N)N)cc4)c(=O)nc3[nH]2)c1 .
## Output 1 µg/mL

## Input Return reported MIC for target or system E. coli 1705878, item C=CC[C@H](NCCCNC(=N)N)c1ccc(-n2cc3cc(-c4cc(CCC[C@H](C)N)cc(Cl)c4F)[nH]c3nc2=O)cc1 .
## Output 0.5 µg/mL

## Input Return reported MIC for target or system E. coli 1705878, item C[C@H](NCCCNC(=N)N)c1ccc(-n2cc3cc(-c4cc(CCC[C@@H](N)CO)cc(Cl)c4F)[nH]c3nc2=O)cc1 .
## Output 2 µg/mL

## Input Return reported MIC for target or system E. coli 1705878, item C[C@H](N)CCCc1cc(Cl)c(F)c(-c2cc3cn(-c4ccc([C@H](N)CCCCNC(=N)N)cc4)c(=O)nc3[nH]2)c1 .
## Output 0.5 µg/mL

## Input Return reported MIC for target or system E. coli 1705878, item NC[C@H]1O[C@H](O[C@H]2[C@H](O)[C@@H](O[C@H]3O[C@H](CO)[C@@H](O)[C@H](N)[C@H]3O)[C@H](N)C[C@@H]2N)[C@H](N)C[C@@H]1O [Tobramycin, reference compound] .
## Output 64 µg/mL
